Origin of values: patent US20110306573A1

subject_of_test: HCV NS5B polymerase (Hepatitis C virus genotype 1b, UniProt P26663)
Sequence (P26663 2420-2955): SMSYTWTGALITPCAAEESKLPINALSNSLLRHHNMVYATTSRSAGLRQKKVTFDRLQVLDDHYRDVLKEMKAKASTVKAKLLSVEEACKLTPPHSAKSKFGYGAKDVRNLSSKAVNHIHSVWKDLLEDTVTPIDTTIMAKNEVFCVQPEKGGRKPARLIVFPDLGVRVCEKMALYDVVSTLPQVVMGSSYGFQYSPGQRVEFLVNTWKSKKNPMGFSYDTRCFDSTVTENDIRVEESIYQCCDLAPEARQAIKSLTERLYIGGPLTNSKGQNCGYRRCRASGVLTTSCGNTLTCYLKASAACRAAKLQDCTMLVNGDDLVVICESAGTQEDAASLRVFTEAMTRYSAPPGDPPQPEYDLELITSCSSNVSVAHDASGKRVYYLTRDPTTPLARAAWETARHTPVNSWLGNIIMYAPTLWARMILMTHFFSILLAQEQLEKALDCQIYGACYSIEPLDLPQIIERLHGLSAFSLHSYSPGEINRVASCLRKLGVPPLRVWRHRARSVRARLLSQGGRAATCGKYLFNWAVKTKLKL
pIC50: −log10 of the molar value.
Readings of pIC50 for the listed compounds

C[C@@]1(O)[C@H](O)[C@@H](COP(=O)(O)OP(=O)(O)OP(=O)(O)O)O[C@H]1n1cc(-c2nnco2)c2c(N)ncnc21; > 4.30
C[C@@]1(O)[C@H](O)[C@@H](COP(=O)(O)OP(=O)(O)OP(=O)(O)O)O[C@H]1n1cc(-c2ncco2)c2c(N)ncnc21; > 6.00
C[C@@]1(O)[C@H](O)[C@@H](COP(=O)(O)OP(=O)(O)OP(=O)(O)O)O[C@H]1n1cc(-c2cn[nH]c2)c2c(N)ncnc21; > 4.30
C[C@@]1(O)[C@H](O)[C@@H](COP(=O)(O)OP(=O)(O)OP(=O)(O)O)O[C@H]1n1cc(-c2ncon2)c2c(N)ncnc21; > 6.00

[in] Supply reported pIC50 belonging to this compound: `C[C@@]1(O)[C@H](O)[C@@H](COP(=O)(O)OP(=O)(O)OP(=O)(O)O)O[C@H]1n1cc(-c2cc[nH]n2)c2c(N)ncnc21`
[out] > 6.00

[in] Supply reported pIC50 belonging to this compound: `Cn1cc(-c2cn([C@@H]3O[C@H](COP(=O)(O)OP(=O)(O)OP(=O)(O)O)[C@@H](O)[C@@]3(C)O)c3ncnc(N)c23)nn1`
[out] > 4.30

[in] Supply reported pIC50 belonging to this compound: `C[C@@]1(O)[C@H](O)[C@@H](COP(=O)(O)OP(=O)(O)OP(=O)(O)O)O[C@H]1n1cc(-c2ncccn2)c2c(N)ncnc21`
[out] > 4.30

[in] Supply reported pIC50 belonging to this compound: `COc1nc(-c2cn([C@@H]3O[C@H](COP(=O)(O)OP(=O)(O)OP(=O)(O)O)[C@@H](O)[C@@]3(C)O)c3ncnc(N)c23)cs1`
[out] > 4.30

[in] Supply reported pIC50 belonging to this compound: `C[C@@]1(O)[C@H](O)[C@@H](COP(=O)(O)OP(=O)(O)OP(=O)(O)O)O[C@H]1n1nc(-c2cc[nH]n2)c2c(N)ncnc21`
[out] > 4.30

###

Readings of IC50 for the listed compounds
subject_of_test: HCV NS5B polymerase (Hepatitis C virus genotype 1b)

Worked cases, answers included:
C[C@@]1(F)[C@H](O)[C@@H](COP(=O)(O)OP(=O)(O)OP(=O)(O)O)O[C@H]1n1cc(-c2ncon2)c2c(N)ncnc21; < 1000 nM
C[C@@]1(F)[C@H](O)[C@@H](COP(=O)(O)OP(=O)(O)OP(=O)(O)O)O[C@H]1n1cc(-c2ccn[nH]2)c2c(N)ncnc21; < 1000 nM

[in] Supply reported IC50 belonging to this compound: `C[C@@]1(F)[C@H](O)[C@@H](COP(=O)(O)OP(=O)(O)OP(=O)(O)O)O[C@H]1n1cc(-c2ncco2)c2c(N)ncnc21`
[out] < 1000 nM
